assay: Membrane permeability by PAMPA; conditions: permeability
Where a SMILES comes first, the peptide text is derived from it. [ ]: non-standard residue; d: D form. NMehPhe = CN[C@@H](CCc1ccccc1)C(=O)O; NMeF = CN[C@@H](Cc1ccccc1)C(=O)O
property label: Papp (×10⁻⁶ cm/s)
Output spec: scalar in ×10⁻⁶ cm/s, unitless text.

CC(=O)N(C)[C@@H](CCc1ccccc1)C(=O)N(C)[C@@H](Cc1ccccc1)C(=O)N(C)[C@@H](Cc1ccccc1)C(=O)N(C)[C@@H](Cc1ccccc1)C(N)=O (Ac-[NMehPhe][NMeF][NMeF][NMeF]-NH2); 1.8

Task: Give the measured Papp of CC(=O)N[C@@H](Cc1c[nH]c2ccccc12)C(=O)N(C)[C@@H](Cc1ccccc1)C(=O)N(C)[C@@H](Cc1ccccc1)C(=O)N(C)[C@@H](Cc1ccccc1)C(N)=O (Ac-W[NMeF][NMeF][NMeF]-NH2) .
Output: 1.8

Task: Give the measured Papp of Cn1c(=O)c2c(ncn2C)n(C)c1=O [CAFFEINE] .
Output: 1.8

* * *

Reported values of Papp for individual entries
assay: Membrane permeability by PAMPA; details: permeability
Where a SMILES comes first, the peptide text is derived from it. [ ]: non-standard residue; d: D form. NMeF = CN[C@@H](Cc1ccccc1)C(=O)O; Tic = O=C(O)[C@@H]1Cc2ccccc2CN1
Output spec: scalar in ×10⁻⁶ cm/s, unitless text.

Guide cases for Papp, answers given:
CN(C(=O)[C@@H]1Cc2ccccc2CN1)[C@@H](Cc1ccccc1)C(=O)N(C)[C@@H](Cc1ccccc1)C(=O)N(C)[C@@H](Cc1ccccc1)C(N)=O (H-[Tic][NMeF][NMeF][NMeF]-NH2); 2.2
CC(=O)N(C)[C@@H](Cc1ccccc1)C(=O)N(C)[C@@H](Cc1ccccc1)C(=O)N(C)[C@@H](Cc1ccccc1)C(=O)N(C)[C@@H](Cc1ccccc1)C(=O)O (Ac-[NMeF][NMeF][NMeF][NMeF]-OH); 0.9

As a next step, examine the compound that follows.
Task: Give the measured Papp of CC(C)NCC(O)COc1cccc2ccccc12 (stereo not drawn) .
Output: 6.9

* * *

test: Membrane permeability by PAMPA; settings: permeability
Where a SMILES comes first, the peptide text is derived from it. [ ]: non-standard residue; d: D form. Tpi = O=C(O)[C@@H]1Cc2c([nH]c3ccccc23)CN1; NMeW = CN[C@@H](Cc1c[nH]c2ccccc12)C(=O)O; NMeF = CN[C@@H](Cc1ccccc1)C(=O)O; NMePhg = CN[C@H](C(=O)O)c1ccccc1; 3Pal = N[C@@H](Cc1cccnc1)C(=O)O; Tic = O=C(O)[C@@H]1Cc2ccccc2CN1
Reported values of Papp for individual entries
Output spec: scalar in ×10⁻⁶ cm/s, unitless text.

CC(=O)N(C)[C@@H](Cc1c[nH]c2ccccc12)C(=O)N(C)[C@@H](Cc1ccccc1)C(=O)N(C)[C@@H](Cc1ccccc1)C(=O)N(C)[C@@H](Cc1ccccc1)C(N)=O (Ac-[NMeW][NMeF][NMeF][NMeF]-NH2); 1.4

Task: Give the measured Papp of CC(=O)N(C)[C@H](C(=O)N(C)[C@@H](Cc1ccccc1)C(=O)N(C)[C@@H](Cc1ccccc1)C(=O)N(C)[C@@H](Cc1ccccc1)C(N)=O)c1ccccc1 (Ac-[NMePhg][NMeF][NMeF][NMeF]-NH2) .
Output: 0.7

Task: Give the measured Papp of CC(=O)N1Cc2ccccc2C[C@H]1C(=O)N(C)[C@@H](Cc1ccccc1)C(=O)N(C)[C@@H](Cc1ccccc1)C(=O)N(C)[C@@H](Cc1ccccc1)C(N)=O (Ac-[Tic][NMeF][NMeF][NMeF]-NH2) .
Output: 2

Task: Give the measured Papp of CC(=O)N1Cc2[nH]c3ccccc3c2C[C@H]1C(=O)N(C)[C@@H](Cc1ccccc1)C(=O)N(C)[C@@H](Cc1ccccc1)C(=O)N(C)[C@@H](Cc1ccccc1)C(N)=O (Ac-[Tpi][NMeF][NMeF][NMeF]-NH2) .
Output: 1.5

Task: Give the measured Papp of CN(C(=O)[C@@H]1Cc2c([nH]c3ccccc23)CN1)[C@@H](Cc1ccccc1)C(=O)N(C)[C@@H](Cc1ccccc1)C(=O)N(C)[C@@H](Cc1ccccc1)C(N)=O (H-[Tpi][NMeF][NMeF][NMeF]-NH2) .
Output: 0.6

Task: Give the measured Papp of CC(=O)N[C@@H](Cc1cccnc1)C(=O)N(C)[C@@H](Cc1ccccc1)C(=O)N(C)[C@@H](Cc1ccccc1)C(=O)N(C)[C@@H](Cc1ccccc1)C(N)=O (Ac-[3Pal][NMeF][NMeF][NMeF]-NH2) .
Output: 1.2

Task: Give the measured Papp of NC(=O)N1c2ccccc2C=Cc2ccccc21 [CARBAMAZEPINE] .
Output: 8
